Test system: Diutina rugosa
assayText: Antifungal activity against Candida rugosa at 150 ug after 48 hr by agar cup bioassay
Format: functional
settings: read-out: DIZ
// zone of inhibition at 150 µg/disc lookup, one value per entry
Just the number in mm, nothing appended.

Q) Endpoint output: zone of inhibition at 150 µg/disc of `NC(=O)N/N=C/c1c(-c2ccccc2)n(CC(=O)c2ccc([N+](=O)[O-])cc2)c2ccccc12` . Value?
A) 14

Q) Try this compound next: `C=CCn1c(-c2ccccc2)c(/C=N/NC(N)=O)c2ccccc21`
A) 12

Q) Try this compound next: `C#CCn1c(-c2ccccc2)c(/C=N/NC(N)=O)c2ccccc21`
A) 15

Q) Try this compound next: `NC(=O)N/N=C/c1c(-c2ccccc2)n(CC(=O)c2ccc(Cl)cc2)c2ccccc12`
A) 12

Q) Try this compound next: `COc1ccc(C(=O)Cn2c(-c3ccccc3)c(/C=N/NC(N)=O)c3ccccc32)cc1`
A) 10

Q) Try this compound next: `CCCCn1c(-c2ccccc2)c(/C=N/NC(N)=O)c2ccccc21`
A) 10

Q) Try this compound next: `NC(=O)N/N=C/c1c(-c2ccccc2)n(CC(=O)c2ccccc2)c2ccccc12`
A) 8

Q) Try this compound next: `Cc1ccc(C(=O)Cn2c(-c3ccccc3)c(/C=N/NC(N)=O)c3ccccc32)cc1`
A) 10
